Origin of the recorded values: patent US20210277015A1

biological target: recombinant human Meningioma Expressed Antigen 5 (MGEA5), also referred to as O-GlcNAcase (OGA) (Homo sapiens, UniProt O60502); construct: Full length OGA enzyme was purchased at OriGene (cat #TP322411); purchased OriGene TP322411; assay: OGA biochemical assay (inhibition of FM-GlcNAc hydrolysis, fluorescence); conditions: FM-GlcNAc substrate, maximal effect
measurement.label: Enzymatic Emax (%)

compound	measurement.label	data.value
Cc1cc(OC[C@]2(C)CCN([C@H](C)c3ccc4c(n3)OCCO4)C2)cc(C)n1 (single isomer, unassigned) [Product 102]	Enzymatic Emax (%)	93
Cc1cc(C[C@H]2CN(C(C)c3ccc4c(n3)OCCO4)C[C@@H]2C)cc(C)n1 (mixture of isomers)	Enzymatic Emax (%)	97
COc1cc(C[C@H]2CCN(C(C)c3ccc4c(n3)OCCC4)C2)cc(C)n1 (single isomer, unassigned) [Product 87]	Enzymatic Emax (%)	99
Cc1cc(C[C@@H]2CCN(C(C)c3nc4c(cc3F)OCCO4)C2)cc(C)n1 (single isomer, unassigned)	Enzymatic Emax (%)	101
Cc1cc(O[C@@H]2CCN(C(C)c3nc4c(cc3F)OCCO4)C2)cc(C)n1 (stereo partly shown) [Product 39]	Enzymatic Emax (%)	100
CC(c1ccc2c(n1)OCCO2)N1CC[C@@H](Oc2ccc(C#N)nn2)C1 (single isomer, unassigned) [Product 55]	Enzymatic Emax (%)	94
Cc1cc(O[C@@H]2CCN(C(C)c3nc4c(cc3F)OCCO4)C2)cc(C)n1 (single isomer, unassigned) [Product 41]	Enzymatic Emax (%)	87

----------
Molecular target: OGA (Homo sapiens)
Construct: endogenous in cells; host or cells: HEK293 cells inducible for P301L mutant human Tau (isoform 2N4R)
Sequence (O60502 1-916): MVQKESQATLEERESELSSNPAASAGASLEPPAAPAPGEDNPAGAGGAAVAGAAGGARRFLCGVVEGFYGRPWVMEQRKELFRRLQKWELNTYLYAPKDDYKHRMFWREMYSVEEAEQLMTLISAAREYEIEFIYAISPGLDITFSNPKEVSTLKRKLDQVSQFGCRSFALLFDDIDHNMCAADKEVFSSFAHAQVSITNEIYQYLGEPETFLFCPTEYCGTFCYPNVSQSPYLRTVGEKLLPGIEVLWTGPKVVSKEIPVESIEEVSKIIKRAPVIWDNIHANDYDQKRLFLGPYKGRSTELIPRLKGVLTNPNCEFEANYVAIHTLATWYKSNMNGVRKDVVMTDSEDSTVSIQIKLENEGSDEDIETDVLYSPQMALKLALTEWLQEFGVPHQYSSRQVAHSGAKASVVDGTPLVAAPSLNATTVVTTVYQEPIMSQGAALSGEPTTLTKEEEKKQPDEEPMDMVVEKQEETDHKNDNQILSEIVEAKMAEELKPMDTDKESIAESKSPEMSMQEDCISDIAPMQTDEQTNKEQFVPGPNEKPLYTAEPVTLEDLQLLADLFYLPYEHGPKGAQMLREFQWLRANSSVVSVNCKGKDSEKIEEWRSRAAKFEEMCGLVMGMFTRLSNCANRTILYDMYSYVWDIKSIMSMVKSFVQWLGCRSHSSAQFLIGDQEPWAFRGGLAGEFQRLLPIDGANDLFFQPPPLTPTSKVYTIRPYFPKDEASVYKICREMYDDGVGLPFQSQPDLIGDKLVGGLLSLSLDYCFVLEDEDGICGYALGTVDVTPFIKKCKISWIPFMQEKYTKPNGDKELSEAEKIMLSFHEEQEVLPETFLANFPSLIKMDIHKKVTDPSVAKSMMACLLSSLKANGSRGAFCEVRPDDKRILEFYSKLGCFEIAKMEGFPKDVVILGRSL
Assay: OGA cellular assay (ICC detection of O-GlcNAcylated proteins in HEK293 cells inducible for P301L mutant human Tau)
Format: cell-based
Conditions: HEK293, HEK293 cells inducible for P301L mutant human Tau; maximum defined by Thiamet G at 200 uM
measurement.label: Emax (%)

Known results for molecules:
molecule	measurement.target	data.value
Cc1cc(O[C@@H]2CCN(C(C)c3nc4c(cc3F)OCCO4)C2)cc(C)n1 (some centres unmarked)	OGA (Homo sapiens)	69
Cc1cc(O[C@@H]2CCN(C(C)c3nc4c(cc3F)OCCO4)C2)nc(C)n1 (some centres unmarked)	OGA (Homo sapiens)	59
COc1cc(C[C@H]2CCN(C(C)c3nc4c(cc3F)CCO4)C2)cc(C)n1 (mixture of isomers) [Product 83]	OGA (Homo sapiens)	89
COc1cc(C[C@H]2CCN(C(C)c3ccc4c(c3)OCC4)C2)cc(C)n1 (some centres unmarked)	OGA (Homo sapiens)	58

1. Cc1cc(C[C@H]2CCN(C(C)c3cc4c(cc3F)OCCO4)C2)cc(C(F)(F)F)n1 (some centres unmarked)
2. COc1cc(C[C@@H]2CN([C@@H](C)c3ccc4c(n3)OCCO4)C[C@H]2C)cc(C)n1 (stereo in doubt)
3. Cc1cc(C[C@@H]2CCN(C(C)c3ccc4c(n3)OCCO4)C2)nc(C)n1 (some centres unmarked)
4. COc1cc(C[C@@H]2CN([C@H](C)c3ccc4c(n3)OCCO4)C[C@H]2C)cc(C)n1 (stereo in doubt)
[ask] Your job: order these 4 records by Emax, ascending. The labels, placed in the requested order, form the answer.
[reply] 4, 2, 3, 1
